- assay.text: yeast display, Sf9 membrane polyspecificity reagent, FACS + sequencing; frameworks hold sequencing errors
recorded.endpoint: polyreactivity (PSR sort gate)

QVQLVESGGGLVQAGGSLRLSCAASGRTFGYYAMGWYRQATGKERELVAAISWSDSGTYYADSVKGRFTISRDNAKNTVYLQMNSLKPEDTAVYYCAKDEPYFVFRDTYDYWGQGTQVTVSS
high polyreactivity
QVQLVESGGGLVQAGGSLRLSCAASGFTFQYYAMGCYRQAPGKERELVAAISARDGSTYYADSVKGRFTISRDNAKNTVYLQMNSLKPEDTAVYYCAARSNYRNAYAYYYWGQGTQVTVSS
high polyreactivity

* * *

- assay.text: yeast display, Sf9 membrane polyspecificity reagent, FACS + sequencing; frameworks hold sequencing errors
recorded.endpoint: polyreactivity (PSR sort gate)

Some entries whose results are on file:
QVQRVESGGGLVQAGGSLRLSCAASGTIFYHNAMGWYRQAPGIERELVAAITGSGGSTYYADSVKGRFTISRDNAKNTVYLQMNSLKPEDTAVYYCAADGYTKWRISWGYDYWGQGTQVTVCS
low polyreactivity
QVQLVESGGGLVQAGGSLRLSCAASGSIFDGYAMGWYRQAPGTERELVAGISGRGTRTYYADSVKGRFTISRDYAMNTVYLQMNSLKPEDTAVYYCNKAGYFHRLKYYYWGQGTQVTVSS
high polyreactivity
QVQLVESGGGLVQAGGSLRLSCAASGSIFQPYAMGWYRQAPGKERELVAAISSSGGSTTYADSVKGRFTISRDNAKNTVYLQMNSLKPEDTAVYYCAADSADDMGYWGQGTQVTVSS
low polyreactivity
QVQLVESGGGLVQAGGSLRLSCAASGFTFYPYVMGWYRQAPGKERELVAAINSGGARTYYADSVKGRFTISRDNAKNTVYLQMNSLKPEDTAVYYCAARTVVGGRIYYYWGQGTQVTVSS
high polyreactivity

Continue with the next sequence.
For QVQLVESGGGLVQAGGSLRLSCAASGSIFVTYAMGWYRQAPGKERELVAAITWNGGSTYYADSVKGRFTISRDNAKNTVYLQMNSLKPEDTAVYYCAADSRYRGNYWGQGTQVTVSS , write its polyreactivity (PSR sort gate).
high polyreactivity

* * *

- assay.text: yeast display, Sf9 membrane polyspecificity reagent, FACS + sequencing; frameworks hold sequencing errors
recorded.endpoint: polyreactivity (PSR sort gate)

QVQLVESGGGLVQAGGSLRLSCAASGFIFVRNTRGWYRQAPGKERELVAAISSRGGRTYYADSVKGRFTISRDNAKNTVYLQMNSLKPEDTAVYYCAKAHSVNQRYDYWGQGTQVTVSS
high polyreactivity
QVQLVESGGGLVQAGGSLRLSCAASGSTFAAYAKGWYRQAPGKERELVAAISRSGGTTYYADSVKGRFTISRDNAKNTVYLQMNSLKPEDTAVYYCAAEQWYDNYLEYDYWGQGTQVTVSS
high polyreactivity
QVQLVESGGGLVKAGGSLRLSCAASGRTFLRNAMGWYRQAPGKERELVATITRGGSTYYADSVKGRFTISRDNAKNSVYLQMNSLKPEDTAVYYCAKDITGGFRRPDYGYWGQGTQVTVSS
low polyreactivity
QVQLVESGGGLVQAGGSLRLSCAASGSIFTENAMGWYRQPPGKERELVATITITGSTNYADSVKGRFTISRDNAKKTVYLQMNSLKPADTAVYYCNADLYIAFSASAYDYWGQGTQVTVSS
low polyreactivity

--- query ---
Recall and state the measured polyreactivity (PSR sort gate) for QVQLVESGGGLVQAGGSLRLSCAASGSTFGHNVMGWYRQAPGKERELVAVISWRGGSTSYADSVKGRFTISRDNAKNTVYLQMNSLKPEDTAVYYCAKPALRYSSRYDSWGQGTQVTVSS .
high polyreactivity
